subject of test: DCN1 (Homo sapiens (Human))
Sequence (Q96GG9 58-259): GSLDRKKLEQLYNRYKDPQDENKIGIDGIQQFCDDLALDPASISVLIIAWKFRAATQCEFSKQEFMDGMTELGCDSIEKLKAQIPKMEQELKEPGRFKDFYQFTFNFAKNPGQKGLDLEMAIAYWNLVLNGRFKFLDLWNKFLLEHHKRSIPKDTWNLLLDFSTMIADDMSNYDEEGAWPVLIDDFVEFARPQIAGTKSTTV
test summary: Competitive FP binding assay
measurement parameters: bounds given in μM; read-out: Binding affinity to DCN1 (IC50)
Square brackets hold non-standard residues; d marks the D form. Peptide text beside a SMILES is read from it. * marks the point of attachment. 2Nal = N[C@@H](Cc1ccc2ccccc2c1)C(=O)O; NHPhenethyl = c1ccc(CCN*)cc1; dLac = C[C@@H](O)C(=O)O; Propionyl = CCC(=O)*
reported endpoint: IC50

As a guide, the following entries are already answered.
| compound | IC50 |
| --- | --- |
| CCC(=O)N[C@@H](Cc1nc(C)c(-c2ccccc2Cl)s1)C(=O)N[C@H](CN)Cc1ccccc1 | > 10 µM |
| CCC(=O)N[C@@H](Cc1ccc2ccccc2c1)C(=O)N[C@H](C(=O)N[C@@H](CCCCN)C(=O)NCCc1ccccc1)[C@@H](C)CC [Example 11] (Propionyl-[2Nal]-Ile-Lys-NHPhenethyl) | > 10 µM |
| NCCNC(=O)[C@H](Cc1nc2ccc(Cl)cc2s1)NC(=O)CCOc1ccccc1 | > 10 µM |

# input Need IC50, item CCC(=O)N[C@@H](Cc1nc2ccc(C(C)C)cc2s1)C(=O)N[C@H](C(=O)NCCN1CCOCC1)C1CCNCC1
# output > 10 µM

# input Next compound: CC[C@H](C)[C@H](NC(=O)[C@H](Cc1ccc2ccccc2c1)NC(=O)[C@@H](C)O)C(=O)N[C@@H](CCCCN)C(=O)N[C@@H](CC(C)C)C(N)=O [Example 167] (H-[dLac][2Nal]IKL-NH2)
# output > 10 µM

# input Next compound: CCC(=O)N[C@@H](Cc1ccc2ccccc2c1)C(=O)N[C@H](C(=O)N[C@@H](CCCCN)C(=O)NC1CCCCC1)[C@@H](C)CC
# output > 3 µM
